Listing of entries alongside the reported Selectivity.
Assay: Selectivity between AMPA/kainate receptor and NMDA/glycine receptor
Set-up: reference not given here

INSERT INTO assay_data (molecule, value_observed) VALUES
  ('O=C(O)CSc1cc2ccc([N+](=O)[O-])cc2nc1O', '> 20'),
  ('O=C(O)c1cc2cc(Cl)c(Cl)cc2nc1O', 0.08),
  ('O=[N+]([O-])c1cc2cc(NS(=O)(=O)C(F)(F)F)c(O)nc2cc1[N+](=O)[O-]', 1),
  ('O=P(O)(O)c1cc2c(Cl)cc(Cl)cc2nc1O', 7.5),
  ('O=P(O)(O)c1cc2cc(Cl)c(Cl)cc2nc1O', 39.8),
  ('O=c1[nH]c2cc(-n3ccnc3)c([N+](=O)[O-])cc2[nH]c1=O [YM-90K]', 102),
  ('O=[N+]([O-])c1cc2cc(-c3nn[nH]n3)c(O)nc2cc1[N+](=O)[O-]', 33);

From here, focus on the item given below.
## Task Which Selectivity value belongs to O=P(O)(O)c1cc2cc(F)c(F)cc2nc1O ?
## Result 1.71

* * *

Assay: Selectivity between AMPA/kainate receptor and NMDA/glycine receptor
Set-up: reference not given here
# Selectivity values compiled below
// no unit string in output, number only

For orientation, consider the following solved cases.
INSERT INTO assay_data (cpd_smiles, reported_property, value_observed) VALUES
  ('O=C(O)c1cc2cc([N+](=O)[O-])c([N+](=O)[O-])cc2nc1O', 'Selectivity', 1.9),
  ('O=[N+]([O-])c1cc2cc(P(=O)(O)O)c(O)nc2cc1[N+](=O)[O-]', 'Selectivity', 343),
  ('CCOP(=O)(O)c1cc2cc(Cl)c(Cl)cc2nc1O', 'Selectivity', 2.6);

## Task May I ask what Selectivity has been recorded for O=[N+]([O-])c1ccc2cc(P(=O)(O)O)c(O)nc2c1 ?
## Result 41

## Task Would you mind telling me what Selectivity value was observed for O=C(O)c1cc2c(Cl)cc(Cl)cc2nc1O ?
## Result 0.08

## Task Can you share its Selectivity? I mean this molecule: O=C(O)c1cc2ccc([N+](=O)[O-])cc2nc1O
## Result 5

## Task GET /values?readout=Selectivity&item= O=P(O)(OCC1CCCC1)c1cc2cc(Cl)c(Cl)cc2nc1O
## Result 5

* * *

Target: Glutamate NMDA receptor
Experiment: Antagonistic activity against N-methyl-D-aspartate glutamate receptor 1 in Xenopus oocytes
Format: functional, cell-based
Settings: oocyte
Rule for this label: y means IC50 is less than 50 µM; n means IC50 is at least 50 µM.

INSERT INTO assay_data (compound, label_class) VALUES
  ('O=[N+]([O-])c1ccc2cc(-c3nnc(O)o3)c(O)nc2c1', 'n'),
  ('O=[N+]([O-])c1cc2cc(NS(=O)(=O)C(F)(F)F)c(O)nc2cc1[N+](=O)[O-]', 'y'),
  ('O=C(O)CSc1cc2ccc([N+](=O)[O-])cc2nc1O', 'n');

## Task Just wondering, is IC50 of O=C(O)c1cc2cc(Cl)c(Cl)cc2nc1O below 50 µM?
## Result y

## Task Take the compound OB(O)c1cc2c(Cl)cc(Cl)cc2nc1O and say whether its IC50 is less than 50 µM.
## Result n

## Task Criterion: IC50 strictly below 50 µM. Is it met by O=P(O)(OCC1CCCC1)c1cc2cc(Cl)c(Cl)cc2nc1O ?
## Result n

## Task Record O=C(NO)c1cc2ccc([N+](=O)[O-])cc2nc1O : is its IC50 strictly below 50 µM?
## Result n

## Task Is IC50 of O=P(O)(O)c1cc2cc(F)c(F)cc2nc1O strictly below 50 µM?
## Result n

## Task Is it true that IC50 reported for O=c1[nH]c2cc([N+](=O)[O-])ccc2cc1-c1cc(O)n[nH]1 is less than 50 µM?
## Result n

## Task Is the reported IC50 for NC(=O)c1cc2ccc([N+](=O)[O-])cc2nc1O strictly below 50 µM?
## Result n

## Task Dear reviewer, please state whether O=C(O)c1cc2ccc([N+](=O)[O-])cc2nc1O has IC50 strictly beneath 50 µM.
## Result y

## Task Is the reported IC50 for O=c1[nH]c2cc(-n3ccnc3)c([N+](=O)[O-])cc2[nH]c1=O [YM-90K] strictly below 50 µM?
## Result y

## Task Consider the compound O=c1[nH]c2cc(Cl)c(Cl)cc2cc1P(=O)(O)O . Is its IC50 strictly less than 50 µM?
## Result n

## Task Record O=[N+]([O-])c1ccc2cc(P(=O)(O)O)c(O)nc2c1 : is its IC50 strictly below 50 µM?
## Result n

## Task State whether 50 µM exceeds IC50 recorded for CCOP(=O)(O)c1cc2cc(Cl)c(Cl)cc2nc1O .
## Result y

## Task Take the compound O=C(O)c1cc2cc([N+](=O)[O-])c([N+](=O)[O-])cc2nc1O and say whether its IC50 is less than 50 µM.
## Result y

## Task Is IC50 of O=C(O)c1cc2c(Cl)cc(Cl)cc2nc1O strictly below 50 µM?
## Result y

## Task Here's an entry: NS(=O)(=O)c1cccc2c1c([N+](=O)[O-])cc1nc(O)c(O)nc12 [NBQX] . Is its IC50 below 50 µM?
## Result n

## Task Check if IC50 falls below 50 µM for O=P(O)(O)c1cc2c(Cl)cc(Cl)cc2nc1O .
## Result y

## Task Take the compound O=[N+]([O-])c1cc2cc(-c3nn[nH]n3)c(O)nc2cc1[N+](=O)[O-] and say whether its IC50 is less than 50 µM.
## Result y

Each recorded value in this set is attributed to ChEMBL document CHEMBL1129678.
